# tested_target: human TLR8 (wild type sequence) (Homo sapiens)
# Construct: expressed in transfected cells; host or cells: HEK293
# measurement_description: TLR8 cellular NFκB-luc reporter assay, wild type TLR8
# Assay type: cell-based
# Design: unit not given here
# settings: lowest effective concentration, wild type TLR8 (compounds 74 onward)
# Method: The ability of compounds to activate human TLR7 and/or TLR8 was assessed in a cellular reporter assay using HEK293 cells transiently transfected with a TLR7 or TLR8 expression vector and NFκB-luc reporter construct. In one instance the TLR expression construct expresses the respective wild type sequence or a mutant sequence comprising a deletion in the second leucine-rich repeat of the TLR. Briefly, HEK293 cells were grown in culture medium (DMEM supplemented with 10% FCS and 2 mM Glutamine). […]
Threshold-based label: TLR 8 wt LEC under 2 gives 1 (yes), TLR 8 wt LEC not under 2 gives 0 (no).

Problem: Dear colleague, could you confirm whether TLR 8 wt LEC of CCCCNc1nc(N)ncc1OCCOc1ccc(C#N)cc1 falls below 2? Thanks.
Solution: 1 (yes)

Problem: Then what about the compound CCCCNc1nc(N)ncc1OCc1cc(C)n(C)n1 ?
Solution: 1 (yes)

Problem: Then what about the compound CCCC[C@@H](CCO)Nc1nc(N)ncc1OCc1ccc2ccccc2n1 ?
Solution: 1 (yes)

Problem: Then what about the compound CCCCNc1nc(N)ncc1OCCCc1ccc2c(c1)OCO2 ?
Solution: 1 (yes)

Problem: Then what about the compound CCCCNc1nc(N)ncc1OCCCc1ccc(OC)c(OC)c1 ?
Solution: 1 (yes)

Problem: Then what about the compound CCCCNc1nc(N)ncc1OCCOc1cc(OC)cc(OC)c1 ?
Solution: 0 (no)

Problem: Then what about the compound CCCCNc1nc(N)ncc1OCCOc1ccc(C(=O)OC)c(OC)c1 ?
Solution: 0 (no)

Problem: Then what about the compound CCCC(C)Nc1nc(N)ncc1OCc1ccc2ccccc2n1 (stereo not shown) ?
Solution: 0 (no)

Problem: Then what about the compound CCCCNc1nc(N)ncc1OCCOc1cccnc1 ?
Solution: 1 (yes)

Problem: Then what about the compound CCCCNc1nc(N)ncc1OCC(=O)c1ccc(OC)cc1 ?
Solution: 0 (no)

Problem: Then what about the compound CCCCNc1nc(N)ncc1OCc1cc(C(F)(F)F)n(C)n1 ?
Solution: 1 (yes)

Problem: Then what about the compound CCCCNc1nc(N)ncc1OCCCc1ccccc1OC ?
Solution: 0 (no)

Problem: Then what about the compound CCCC(CCC)Nc1nc(N)ncc1OCCCc1ccccc1 ?
Solution: 0 (no)

Problem: Then what about the compound CCCC[C@@H](CCO)Nc1nc(N)ncc1OCc1ncc(C)c(OC)c1C ?
Solution: 1 (yes)

Problem: Then what about the compound CCCCNc1nc(N)ncc1OCc1cccc2c1OCCCO2 ?
Solution: 1 (yes)

Problem: Then what about the compound CCCCNc1nc(N)ncc1OCc1nc2ccccc2[nH]1 ?
Solution: 1 (yes)

Problem: Then what about the compound CCCCNc1nc(N)ncc1OCC(C)(C)O ?
Solution: 0 (no)

###

# tested_target: human TLR8 (wild type sequence) (Homo sapiens, UniProt Q9NR97)
# Construct: expressed in transfected cells; host or cells: HEK293
# Sequence (Q9NR97 27-1041): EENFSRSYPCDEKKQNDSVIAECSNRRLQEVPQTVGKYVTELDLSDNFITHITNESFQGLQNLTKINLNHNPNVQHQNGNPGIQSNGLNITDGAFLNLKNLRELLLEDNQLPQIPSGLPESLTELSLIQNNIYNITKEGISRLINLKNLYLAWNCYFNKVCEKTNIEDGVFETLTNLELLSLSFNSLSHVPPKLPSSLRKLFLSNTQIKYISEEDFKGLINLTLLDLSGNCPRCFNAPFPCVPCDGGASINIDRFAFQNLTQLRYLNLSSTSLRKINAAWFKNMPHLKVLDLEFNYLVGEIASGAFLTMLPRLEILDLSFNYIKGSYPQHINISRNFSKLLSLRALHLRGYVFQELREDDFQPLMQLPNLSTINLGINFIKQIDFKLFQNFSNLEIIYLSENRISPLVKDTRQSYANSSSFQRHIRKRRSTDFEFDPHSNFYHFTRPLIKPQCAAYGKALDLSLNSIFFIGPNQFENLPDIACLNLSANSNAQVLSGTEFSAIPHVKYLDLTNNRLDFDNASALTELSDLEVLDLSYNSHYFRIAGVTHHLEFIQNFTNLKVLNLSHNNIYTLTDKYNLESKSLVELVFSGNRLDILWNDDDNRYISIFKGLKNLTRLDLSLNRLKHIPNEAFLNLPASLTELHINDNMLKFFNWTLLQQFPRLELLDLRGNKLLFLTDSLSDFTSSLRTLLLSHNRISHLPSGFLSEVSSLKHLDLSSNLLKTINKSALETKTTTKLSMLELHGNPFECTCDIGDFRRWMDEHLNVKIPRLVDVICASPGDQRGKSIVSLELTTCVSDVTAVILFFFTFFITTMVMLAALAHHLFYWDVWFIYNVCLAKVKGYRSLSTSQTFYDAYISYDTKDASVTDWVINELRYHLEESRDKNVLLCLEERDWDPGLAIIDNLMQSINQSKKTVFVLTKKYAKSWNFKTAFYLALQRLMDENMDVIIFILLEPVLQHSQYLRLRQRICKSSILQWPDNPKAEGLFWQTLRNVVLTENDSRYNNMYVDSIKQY
# measurement_description: TLR8 cellular NFκB-luc reporter assay, wild type TLR8
# Format: cell-based
# Set-up: unit not given here
# settings: lowest effective concentration, wild type TLR8 (compounds 1-73)
Would you mind telling me the reported TLR8-wt_LEC of each entry?
The answer should be a number; do not append a unit.

Problem: Query the reported TLR8-wt_LEC for human TLR8 (wild type sequence) (Homo sapiens, UniProt Q9NR97); item: CCCCCNc1nc(N)ncc1OC
Solution: 5.55

Problem: Then what about the compound CCCCNc1nc(N)ncc1OCc1cc(F)c(F)cc1OC ?
Solution: 3.06

Problem: Then what about the compound CCCCNc1nc(N)ncc1OCc1cc(-c2ccc(F)cc2)on1 ?
Solution: 1.78

Problem: Then what about the compound CCCCNc1nc(N)ncc1OCCN1CCOCC1 ?
Solution: 5.36

Problem: Then what about the compound CCCC(C)Nc1nc(N)ncc1OC (stereo not shown) ?
Solution: 3.68

Problem: Then what about the compound CCCCNc1nc(N)ncc1OCc1cn2ccccc2n1 ?
Solution: 0.83

Problem: Then what about the compound CCCCNc1nc(N)ncc1OCCCc1ccccc1 ?
Solution: 7.94
